Biological target: Dupixent (IgG4 monoclonal antibody)
Assay: BLI, biotinylated ligand on sensor; 'Binding affinity (nM)'
measurement kind: Kd (nM)
I only need the number, in nM, no unit after it.

Worked cases, Kd given:
affinity ligand SEQ ID NO: 168 (designed binder, biotinylated (AviTag system)) MDEVARWEVQGAAYAARGGYDRAIEYYERALELDPNNAWAWEHLGWAYAARGDYDRAIEYYERALELDPDDAHEWFRLGFAYAARGDYDRAIEYYERALELDPEDELARAELESARRARQGQAGQGWAEFRQRLAAIRTRLEALGGSEAELAAFEREIAAFESELQAYAGAGNPEVEALRREAAAIRDELQAYRHNHHHHHHC | 232
affinity ligand SEQ ID NO: 154 (designed binder, biotinylated (AviTag system)) MGDEAERWYDLGAAYAARGDYDRAIEYYQRALELDPNDAWAWWELGVAYAARGDYDRAIEYYQRALELDPNNAVAWARLGIAYAARGDYDRAIEYYQRALELDPNNEVARDALEYARRARRCHHHHHH | 13

// next item, Kd requested
Prompt: Could you tell me which Kd is on file for affinity ligand SEQ ID NO: 170 (designed binder, biotinylated (AviTag system)) MGDEADRWYDQGAAYAARGDYDRAIEYYERALELDPNDAWAWWELGVAYAARGDYDRAIEYYQRALELDPNDAVAWARLGHAYAARGDYDRAIEYYQRALELDPNNEAARSNLEYARRAAACGLNDIFEAQKIEWHEHHHHHH ?
Completion: 28
